molecular target: human PPAR-γ ligand-binding domain (Homo sapiens, UniProt P37231); construct: GST-PPARγ-LBD (5 nM), Tb-labeled anti-GST antibody (5 nM); purchased Invitrogen; test: Lanthascreen TR-FRET NCOR corepressor displacement assay; type: biochemical; conditions: 40% (v/v) rat serum, 3 experiments, mean ± SD; read-out: IC50 displacement of NCOR corepressor peptide
Sequence (P37231 238-503 limits assumed): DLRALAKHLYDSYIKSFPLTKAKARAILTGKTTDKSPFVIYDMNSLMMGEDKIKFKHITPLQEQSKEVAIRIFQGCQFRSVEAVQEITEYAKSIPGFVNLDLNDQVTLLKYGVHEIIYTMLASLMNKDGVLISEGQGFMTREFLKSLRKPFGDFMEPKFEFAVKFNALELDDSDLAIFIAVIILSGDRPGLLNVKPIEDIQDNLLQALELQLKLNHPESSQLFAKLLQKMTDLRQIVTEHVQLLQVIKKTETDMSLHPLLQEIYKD
recordedEndpoint: pIC50
Note on pIC50: it is the negative log10 of concentration, concentration in mol/L.

QUERY: Entry O=C(O)[C@H](Oc1cccc(C(F)(F)F)c1)c1ccc(Cl)cc1 (stereo in doubt) has what pIC50?
RESULT: 4.24

###

assay: Plasma protein binding by equilibrium dialysis, rat plasma; format: in vitro ADME, Sprague Dawley rats; settings: Sprague Dawley, pH 7.4, MBX-102 acid 2000 μM, equilibrium dialysis vs PBS, 37°C, read-out: %Protein Binding ± SD (converted)
recordedEndpoint: fraction unbound at 2000 µM

QUERY: # lookup: fraction unbound at 2000 µM of O=C(O)[C@H](Oc1cccc(C(F)(F)F)c1)c1ccc(Cl)cc1 (stereo in doubt)
RESULT: 0.005

###

Biological target: Gal 4-Mouse PPAR-γ LBD (Mus musculus, UniProt P37238)
Construct: 5 μg Gal 4-Mouse PPAR-γ LBD; expressed in transfected cells; host or cells: HEK-293T
Sequence (P37238 238-503 limits assumed): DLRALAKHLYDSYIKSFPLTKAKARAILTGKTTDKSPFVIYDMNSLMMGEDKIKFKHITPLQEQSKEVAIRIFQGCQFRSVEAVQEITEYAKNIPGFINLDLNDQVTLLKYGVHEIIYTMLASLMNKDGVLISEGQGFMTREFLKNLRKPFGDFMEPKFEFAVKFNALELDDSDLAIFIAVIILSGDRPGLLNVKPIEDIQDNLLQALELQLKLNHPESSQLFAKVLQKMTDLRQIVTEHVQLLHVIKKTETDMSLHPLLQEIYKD
Test: PPAR-γ reporter gene (transactivation) assay in HEK-293T cells with serum or serum proteins
Type: cell-based
Settings: 10% human serum (Table 4, Figure 4), 3 experiments; read-out: Mean EC50 ± SD, Human
recordedEndpoint: EC50 (µM)
Supply the numeric figure in µM, leaving out any unit text.

QUERY: Recorded EC50 of O=C(O)[C@H](Oc1cccc(C(F)(F)F)c1)c1ccc(Cl)cc1 (stereo in doubt) , please.
RESULT: 260

###

Molecular target: Gal 4-Mouse PPAR-γ LBD (Mus musculus)
Construct: 5 μg Gal 4-Mouse PPAR-γ LBD; expressed in transfected cells; host or cells: HEK-293T
Assay: PPAR-γ reporter gene (transactivation) assay in HEK-293T cells with serum or serum proteins
Type: cell-based
Conditions: 0% human serum albumin (Figure 3), 2–6 experiments, mean ± SD; read-out: EC50 PPAR-γ activation
Method: All cells were maintained at 37°C in a humidified atmosphere of 8% CO2 in air. For a pool sufficient to supply 100 wells, 6 million cells were diluted into medium for a total volume of 9 mL. […] Measurement of luciferase and fluorescence activity was performed according to the manufacturer’s instructions. […] An 80 μL lysate aliquot was transferred to opaque white well plates and the luminescence measured. […] Each experimental condition was assessed in quadruplicate. […]
recordedEndpoint: EC50
In your response, put the unit directly after the numeric value.

QUERY: What does the data say about its EC50? Entry: O=C(O)[C@H](Oc1cccc(C(F)(F)F)c1)c1ccc(Cl)cc1 (stereo in doubt)
RESULT: 14.4 µM
